experimental target: CyclinA2/CDK2 (Homo sapiens)
Construct: purchased CRELUX Protein Services
test: Fluorescence Polarization (FP) competitive binding assay, Cyclin A2/Cdk2;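 note: plates equilibrated two hours at room temperature before polarization reading, IC50 fitted from eight-concentration compound titration curves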
assay context: 8 nM Cyclin A2/Cdk2, 2 nM FAM probe; average of 2-3 independent experiments; read-out: Cyclin A FP IC50
*1 amine or outer side, *2 acyl side, *3 side chain or, on linkers, in order; H or OH if unused. Where a SMILES comes first, the peptide text is derived from it. Bridges are numbered along the chain shown (N, C = ends). [ ]: non-standard residue; d: D form. The star is where a group is joined. X10 = CC(C)C(=O)N1[C@H]2COC[C@@H]1C=C(c1ccc(Cl)cc1C[C@@H](C(=O)[*:2])N(C)[*:1])C2; NMehhhLys(Me) = CN([C@@H](CCCCCCCN(C)[*:3])C(=O)[*:2])[*:1]; X29 = CN([C@@H](Cc1cc(Cl)ccc1-c1cn[nH]c1)C(=O)[*:2])[*:1]; X44 = Cc1nnc(-c2ccc(Cl)cc2C[C@@H](C(=O)[*:2])N(C)[*:1])o1; NMe(hhhLys) = CN([C@@H](CCCCCCCN[*:3])C(=O)[*:2])[*:1]; Cyclobutanecarbonyl(1-CF3) = O=C(C1(C(F)(F)F)CCC1)*; cBuCO(3,3-F2-1-CF3) = O=C(C1(C(F)(F)F)CC(F)(F)C1)*; X173 = CN([C@@H](Cc1cc(Cl)cs1)C(=O)[*:2])[*:1]; Pro(trans-4-F) = O=C(O)[C@@H]1C[C@@H](F)CN1; Gly(cPr) = N[C@H](C(=O)O)C1CC1

compound	IC50
Cc1nnc(-c2ccc(Cl)cc2C[C@H]2C(=O)NCCCCCCC[C@H](N(C)C(=O)[C@@H](NC(=O)[C@@H]3C[C@@H](F)CN3C(=O)C3(C(F)(F)F)CCC3)C3CC3)C(=O)N[C@@H](CC(C)C)C(=O)N2C)o1 [Example 161] ({Cyclobutanecarbonyl(1-CF3)}-[Pro(trans-4-F)][Gly(cPr)][NMe(hhhLys)]L[X44]; lactam 3-C)	0.02 µM
CC(C)C[C@@H]1NC(=O)[C@@H](N(C)C(=O)[C@@H](NC(=O)[C@@H]2C[C@@H](F)CN2C(=O)C2(C(F)(F)F)CCC2)C2CC2)CC=CCCCCN(C)C(=O)[C@H](Cc2cc(Cl)ccc2-c2cnn(C3CC3)c2)N(C)C1=O	0.04 µM
CC(C)C[C@@H]1NC(=O)[C@@H](N(C)C(=O)[C@@H](NC(=O)[C@@H]2C[C@@H](F)CN2C(=O)C2(C(F)(F)F)CC(F)(F)C2)C2CC2)CCCCCCCN(C)C(=O)[C@H](Cc2cc(Cl)ccc2-c2cn[nH]c2)N(C)C1=O [Example 167] ({cBuCO(3,3-F2-1-CF3)}-[Pro(trans-4-F)][Gly(cPr)][NMehhhLys(Me)]L[X29]; lactam 3-C)	0.02 µM
CC(C)C[C@@H]1NC(=O)[C@@H](N(C)C(=O)[C@@H](NC(=O)[C@@H]2C[C@@H](F)CN2C(=O)C2(C(F)(F)F)CC(F)(F)C2)C2CC2)CCCCCCCN(C)C(=O)[C@H](Cc2cc(Cl)cs2)N(C)C1=O [Example 426] ({cBuCO(3,3-F2-1-CF3)}-[Pro(trans-4-F)][Gly(cPr)][NMehhhLys(Me)]L[X173]; lactam 3-C)	0.11 µM
CC(C)C[C@@H]1NC(=O)[C@@H](N(C)C(=O)[C@@H](NC(=O)[C@@H]2C[C@@H](F)CN2C(=O)C2(C(F)(F)F)CC(F)(F)C2)C2CC2)C/C=C\CCCCN(C)C(=O)[C@H](Cc2cc(F)ccc2-c2cnn(S(C)(=O)=O)c2)N(C)C1=O	0.07 µM
CC(C)C[C@@H]1NC(=O)[C@@H](N(C)C(=O)[C@@H](NC(=O)[C@@H]2C[C@@H](F)CN2C(=O)C2(C(F)(F)F)CC(F)(F)C2)C2CC2)CCCCCCCNC(=O)[C@H](Cc2cc(Cl)ccc2C2=C[C@H]3COC[C@@H](C2)N3C(=O)C(C)C)N(C)C1=O [Example 327] ({cBuCO(3,3-F2-1-CF3)}-[Pro(trans-4-F)][Gly(cPr)][NMe(hhhLys)]L[X10]; lactam 3-C)	0.02 µM
